Catalogue of normalized RNA/DNA level with ligand (log10) values
B1: library; a variant is named by its letters at N, in order (parent)
chain: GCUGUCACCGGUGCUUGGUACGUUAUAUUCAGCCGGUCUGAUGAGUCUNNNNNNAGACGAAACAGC

Variants of: B1
measurement protocol: normalized RNA/DNA level with ligand (relative to sTRSVctl = 100) (log10 (% of sTRSVctl)); HEK293T overexpressing SLC46A1; ligand concentration (+) RNA-Seq: 6 mM; higher = less ribozyme self-cleavage, higher mRNA level
condition: with (6R,S)-folinic acid; ligand present: yes
assay readout: normalized RNA/DNA level with ligand (log10)

mut=UGCGUU meas_value=2
mut=ACAGUG meas_value=2
mut=GUGUUG meas_value=2.01
mut=CGAAAA meas_value=1.98
mut=AAGUGU meas_value=2.01
mut=CCCCGG meas_value=2.06
mut=GGAUUU meas_value=2.01
mut=AACUCG meas_value=1.99
mut=AAAAUA meas_value=2
mut=UAGGAU meas_value=2
mut=CAAGCC meas_value=2.03
mut=UACACA meas_value=1.99
mut=UGUAAC meas_value=1.99
mut=UCAUUU meas_value=2.02
mut=UAGAGA meas_value=1.99
mut=UGUCCC meas_value=2.03
mut=CUGCGG meas_value=2.07
mut=AGACCA meas_value=2.03
mut=GAAAGU meas_value=2.02
mut=UGCCUG meas_value=2.02
mut=GAUAUG meas_value=2
mut=GCGGGG meas_value=2.05
mut=AGACCC meas_value=2.02
mut=GGUAUG meas_value=2.01
mut=AGAGUA meas_value=2.01
mut=AGUAUU meas_value=2.03
mut=CUUACA meas_value=2
mut=GAUCAG meas_value=2.05
mut=GCAUCA meas_value=2.03
mut=ACUAAA meas_value=2.02
mut=UUGCCU meas_value=2.07
mut=ACCGAA meas_value=2.03
mut=UCUCGC meas_value=2.05
mut=AGAUGG meas_value=2.02
mut=GUCGUA meas_value=2.01
